assay: Biodistribution in AR4-2J tumor-bearing mice; type: in vivo; details: female, mouse, femur, iv, 10 pmol, total radioactivity; AR4-2J tumor SCID mice, 1 h pi; mean ± SD; read-out: Femur uptake
METRIC_NAME: tissue uptake at 1 h (%ID/g)
// return numeric value only (unit: %ID/g, not printed)

Tell me measured tissue uptake at 1 h for C[C@H](NC(=O)CN1CCN(CC(=O)O)CCN(CC(=O)O)CCN(CC(=O)O)CC1)C(=O)NCC(=O)N[C@H]1CSSC[C@@H](C(=O)O)NC(=O)[C@H](CO)NC(=O)[C@H]([C@@H](C)O)NC(=O)[C@H](Cc2ccccc2)NC(=O)[C@H]([C@@H](C)O)NC(=O)[C@H](CCCCN)NC(=O)[C@@H](Cc2c[nH]c3ccccc23)NC(=O)[C@H](Cc2ccccc2)NC(=O)[C@H](Cc2ccccc2)NC(=O)[C@H](CC(N)=O)NC(=O)[C@H](CCCCN)NC1=O [[^111In]AT2S, metal not drawn] please. 0.49
